# System: T-Rex 293 cell line SC3 cells lacking increased expression of androgen receptor protein
# assay.info: Cellular growth inhibition assay, T-Rex 293 SC3 cells without doxycycline (CellTiter-Glo, 72 hours)
# Type: cell-based
# condition.details: 72 h, T-Rex 293 cell line SC3 cells not exposed to doxycycline (lacking increased androgen receptor expression)
# Procedure: The following types of cells were prepared for this experiment: (i) a T-Rex 293 cell line having increased expression of androgen receptor protein due to exposure to doxycycline and (ii) a T-Rex 293 cell line lacking increased expression of androgen receptor protein. Ability of the test compounds to inhibit proliferation of the foregoing cell types was evaluated according to the procedures set forth below. […] Data was normalized using zero luminescence for baseline. […]
Parameter GI50: see the listing below.

These recorded examples may help you get a feel for the data.
Cc1sc2c(c1C)C(c1ccc([C@H]3C[C@@H](C[C@H]4CCCN(c5ccc(C(=O)N[C@H]6CC[C@H](Oc7ccc(C#N)c(Cl)c7)CC6)nn5)C4)C3)cc1)=N[C@@H](Cc1ncco1)c1nnc(C)n1-2 [I-356] :: > 3000 nM
Cc1sc2c(c1C)C(c1ccc(CC3CC4(CCN(c5ccc(C(=O)N[C@H]6CC[C@H](Oc7ccc(C#N)c(Cl)c7)CC6)nn5)CC4)C3)cc1)=NC(C(F)(F)F)c1nnc(C)n1-2 (stereo partly shown) [I-728] :: > 3000 nM
Cc1sc2c(c1C)C(c1ccc(N[C@H]3CCN(c4ncc(C(=O)N[C@H]5CC[C@H](Oc6ccc(C#N)c(Cl)c6)CC5)cn4)C3)cc1)=NC(Cc1ncco1)c1nnc(C)n1-2 (stereo partly shown) [I-773] :: 500 to 1500 nM
Cc1sc2c(c1C)C(c1ccc(CNC(=O)[C@@H]3CCCN(c4ccc(C(=O)N[C@H]5CC[C@H](Oc6ccc(C#N)c(Cl)c6)CC5)nn4)C3)cc1)=N[C@@H](Cc1ncco1)c1nnc(C)n1-2 [I-230] :: 500 to 1500 nM

Ask: Query GI50 for Cc1sc2c(c1C)C(c1ccc(OC3CC4(CCCN(c5ccc(C(=O)N[C@H]6CC[C@H](Oc7ccc(C#N)c(Cl)c7)CC6)nn5)C4)C3)nc1)=N[C@@H](Cc1ncco1)c1nnc(C)n1-2 (stereo partly shown) [I-247]
Result: < 500 nM

Ask: Query GI50 for Cc1sc2c(c1C)C(c1ccc(N3CC[C@@H](CNc4ncc(C(=O)N[C@H]5CC[C@H](Oc6ccc(C#N)c(Cl)c6)CC5)cn4)C3)cc1)=NC(Cc1ncco1)c1nnc(C)n1-2 (stereo partly shown) [I-795]
Result: < 500 nM

Ask: Query GI50 for Cc1sc2c(c1C)C(c1ccc(CC[C@@H]3CC[C@@]4(CCCN(c5ccc(C(=O)N[C@H]6CC[C@H](Oc7ccc(C#N)c(Cl)c7)CC6)nn5)C4)C3)cc1)=N[C@@H](Cc1ncco1)c1nnc(C)n1-2 [I-214]
Result: > 3000 nM

Ask: Query GI50 for Cc1sc2c(c1C)C(c1ccc([C@H]3CC[C@@]4(C3)CN(c3ccc(C(=O)N[C@H]5CC[C@H](Oc6ccc(C#N)c(Cl)c6)CC5)nn3)CCO4)cc1)=N[C@@H](Cc1ncco1)c1nnc(C)n1-2 [I-364]
Result: > 3000 nM

Ask: Query GI50 for Cc1sc2c(c1C)C(c1ccc(N[C@@H]3CCC[C@H](Nc4ncc(C(=O)N[C@H]5CC[C@H](Oc6ccc(C#N)c(Cl)c6)CC5)cn4)C3)cc1)=NC(Cc1ncco1)c1nnc(C)n1-2 (stereo partly shown) [I-801]
Result: < 500 nM

Ask: Query GI50 for Cc1sc2c(c1C)C(c1ccc([C@H]3C[C@H](C4CC5(CCN(c6ccc(C(=O)N[C@H]7CC[C@H](Oc8ccc(C#N)c(Cl)c8)CC7)nn6)CC5)C4)C3)cc1)=N[C@H](Cc1ncco1)c1nnc(C)n1-2 [I-383]
Result: > 3000 nM
